Read-out record for ROCK2 (Homo sapiens (Human)): IC50
State the result as a value with its unit after it.

Some solved cases for reference:
> print(dat)
                                   compound  measure.name  recorded.result
1  O=C(Nc1ccnnc1)c1ccc2ccc(-c3nccc(Nc4ccc5[nH]ncc5c4)n3)cc2n1 [TDI01236]          IC50           135 nM
2  Cc1c(Nc2ccnc(-c3ccc4cc(C(=O)Nc5ccnnc5)[nH]c4c3)n2)ccc2[nH]ncc12 [TDI01276]          IC50           113 nM
3  Cc1cnc(-c2ccc3cc(C(=O)Nc4ccnnc4)[nH]c3c2)nc1Nc1ccc2[nH]ncc2c1 [TDI01250]          IC50           208 nM
4  O=C(Nc1ccnnc1)c1cc2ccc(-c3nc(Nc4ccc5[nH]ncc5c4)cc4nccn34)cc2[nH]1 [TDI01164]          IC50           438 nM

// below: IC50 requested for another compound
Which IC50 value is on record for O=C(Nc1ccnnc1)c1cc2ccc(-c3ncc(F)c(Nc4ccc5[nH]ncc5c4)n3)cc2[nH]1 [TDI01213] ?
255 nM
